organism: Rattus norvegicus; assay: DrugMatrix - Regimen: Daily Repeat; type: toxicity, organism-based, Sprague-Dawley; parameters: regimen Daily Repeat, gender Male, age 6-8 weeks; conditions: in vivo, po, 1500 mg/kg, 120 h, tissue Plasma, route oral GAVAGE, dose level High, time 5 day, vehicle .5 % CMC
assay-metric: CARBON DIOXIDE (mmol/L)
Numbers only, in mmol/L.

>  <molecule>
COc1cc(/C=C/C(=O)O)ccc1O [FERULATE]

>  <CARBON DIOXIDE, mmol/L>
26

$$$$
>  <molecule>
O=C(O)CCc1nc(-c2ccccc2)c(-c2ccccc2)o1

>  <CARBON DIOXIDE, mmol/L>
25.33

$$$$
>  <molecule>
CC[C@H]1OC(=O)[C@H](C)[C@@H](O[C@H]2C[C@@](C)(OC)[C@@H](O)[C@H](C)O2)[C@H](C)[C@@H](O[C@@H]2O[C@H](C)C[C@H](N(C)C)[C@H]2O)[C@](C)(O)C[C@@H](C)C(=O)[C@H](C)[C@@H](O)[C@]1(C)O

>  <CARBON DIOXIDE, mmol/L>
29

$$$$

Now take the following molecule into account.
Query string: Given the entry Cc1ccc(S(=O)(=O)NC(=O)NN2CCCCCC2)cc1 [TOLAZAMIDE] , report its measured CARBON DIOXIDE.
Result string: 25.33

----------
organism: Rattus norvegicus; test: DrugMatrix - Regimen: Daily Repeat; assay type: toxicity, organism-based, Sprague-Dawley; parameters: regimen Daily Repeat, gender Male, age 6-8 weeks; settings: in vivo, iv, 0 mg/kg, 72 h, tissue Blood, dose level Control, time 3 day, vehicle 100 % SALINE
assay-metric: MONOCYTE
Record the result as number plus unit.

>  <compound>
CC(=O)[C@]1(O)Cc2c(O)c3c(c(O)c2[C@@H](O[C@H]2C[C@H](N)[C@H](O)[C@H](C)O2)C1)C(=O)c1ccccc1C3=O [IDARUBICIN]

>  <MONOCYTE>
2%

$$$$
>  <compound>
CO[C@@]12[C@H](COC(N)=O)C3=C(C(=O)C(C)=C(N)C3=O)N1C[C@@H]1N[C@@H]12 [MITOMYCIN]

>  <MONOCYTE>
0.67%

$$$$
>  <compound>
COC(=O)C[C@](O)(CCC(C)(C)O)C(=O)O[C@@H]1C(OC)=C[C@]23CCCN2CCc2cc4c(cc2[C@H]13)OCO4 [HARRINGTONINE]

>  <MONOCYTE>
0.83%

$$$$

Now take the following compound into account.
Query string: Given the entry Cc1c(N)nc([C@H](CC(N)=O)NC[C@H](N)C(N)=O)nc1C(=O)N[C@H](C(=O)N[C@H](C)[C@@H](O)[C@H](C)C(=O)N[C@H](C(=O)NCCc1nc(-c2nc(C(=O)NCCC[S+](C)C)cs2)cs1)[C@@H](C)O)[C@@H](O[C@@H]1O[C@@H](CO)[C@@H](O)[C@H](O)[C@@H]1O[C@H]1O[C@H](CO)[C@@H](O)[C@H](OC(N)=O)[C@@H]1O)c1c[nH]cn1.[Br-] [BLEOMYCIN A2] , report its measured MONOCYTE.
Result string: 1.83%

----------
species: Rattus norvegicus; experiment: DrugMatrix - Regimen: Daily Repeat; assay type: toxicity, organism-based, Sprague-Dawley; set-up: regimen Daily Repeat, gender Male, age 6-8 weeks; details: in vivo, po, 0 mg/kg, 72 h, tissue Blood, route oral GAVAGE, dose level Control, time 3 day, vehicle .5 % CMC
Record form. Attribute: LEUKOCYTE COUNT. Fill in for each entry.
Give bare numbers, in x10E3/uL.

Reference set, count: 6
>  <molecule>
CC(C)Cc1ccc([C@H](C)C(=O)O)cc1

>  <LEUKOCYTE COUNT [x10E3/uL]>
9.83

$$$$
>  <molecule>
CN(C)CCOC(c1ccccc1)c1ccccc1.Cn1c(=O)c2[nH]c(Cl)nc2n(C)c1=O [DIMENHYDRINATE]

>  <LEUKOCYTE COUNT [x10E3/uL]>
15.93

$$$$
>  <molecule>
CC(C)(C#N)c1cc(Cn2cncn2)cc(C(C)(C)C#N)c1

>  <LEUKOCYTE COUNT [x10E3/uL]>
12.4

$$$$
>  <molecule>
Nc1ccc(C(=O)O)c(O)c1

>  <LEUKOCYTE COUNT [x10E3/uL]>
11.18

$$$$
>  <molecule>
CCN(CC)CCNC(=O)c1cc(Cl)c(N)cc1OC [METOCLOPRAMIDE]

>  <LEUKOCYTE COUNT [x10E3/uL]>
13

$$$$
>  <molecule>
NCC(CC(=O)O)c1ccc(Cl)cc1 (stereo unspecified)

>  <LEUKOCYTE COUNT [x10E3/uL]>
15.25

$$$$

Parameters: items (list). Returns: LEUKOCYTE COUNT for each item.
1. COc1ccc(Cl)cc1C(=O)NCCc1ccc(S(=O)(=O)NC(=O)NC2CCCCC2)cc1 [GLYBURIDE]
2. Cl.NC[C@H]1CC[C@H](C(=O)Oc2ccc(CCC(=O)O)cc2)CC1 [CETRAXATE HYDROCHLORIDE]
3. CC(=O)Nc1ccc2c(c1)Cc1ccccc1-2
4. CCN1C[C@]2(COC)[C@H](O)C[C@H](OC)[C@@]34[C@@H]5C[C@@]6(O)[C@H](OC(=O)c7ccccc7)[C@@H]5[C@@](OC(C)=O)([C@@H]([C@H](OC)[C@H]23)[C@@H]14)[C@@H](O)[C@@H]6OC
5. NC(=O)CN1CCCC1=O

Result string:
1: 11.18; 2: 13.4; 3: 15.25; 4: 9.78; 5: 13.57

Parameters: items (list). Returns: LEUKOCYTE COUNT for each item.
1. CC(C)NCC(O)COc1ccc(CC(N)=O)cc1 (stereo unspecified)
2. NC(=O)NC(=O)Cc1ccccc1 [PHENACEMIDE]
3. COc1cc(/C=C/C(=O)O)ccc1O [FERULATE]
4. Cc1cc2c(s1)Nc1ccccc1N=C2N1CCN(C)CC1
5. CCOc1cc(N)c(Cl)cc1C(=O)NCC1CN(Cc2ccc(F)cc2)CCO1 (stereo unspecified) [MOSAPRIDE]
6. O=C1c2ccccc2C(=O)C1c1ccccc1
7. CCN1CCCC1CNC(=O)c1cc(S(N)(=O)=O)ccc1OC (stereo unspecified) [SULPIRIDE]

Result string:
1: 11.13; 2: 11.93; 3: 13.4; 4: 17.57; 5: 15.25; 6: 9.78; 7: 13.4

----------
species: Rattus norvegicus; test: DrugMatrix - Regimen: Daily Repeat; type: toxicity, organism-based, Sprague-Dawley; design: regimen Daily Repeat, gender Male, age 6-8 weeks; conditions: in vivo, po, 0 mg/kg, 72 h, tissue Blood, route oral GAVAGE, dose level Control, time 3 day, vehicle 100 % SALINE
assay-metric: MEAN CORPUSCULAR VOLUME

Reference set, count: 4
>  <molecule>
Cc1ccnc2c1NC(=O)c1cccnc1N2C1CC1

>  <MEAN CORPUSCULAR VOLUME>
62.78 fL

$$$$
>  <molecule>
O=[As][O-].[Na+] [SODIUM ARSENITE]

>  <MEAN CORPUSCULAR VOLUME>
66.1 fL

$$$$
>  <molecule>
CC(CN1c2ccccc2Sc2ccccc21)N(C)C (stereo not given)

>  <MEAN CORPUSCULAR VOLUME>
62.87 fL

$$$$
>  <molecule>
CCO

>  <MEAN CORPUSCULAR VOLUME>
66.1 fL

$$$$

Query string: Given the entry `CCN(CC)N=O` , report its measured MEAN CORPUSCULAR VOLUME.
Result string: 62.47 fL

----------
species on record: Rattus norvegicus; assay: DrugMatrix - Regimen: Daily Repeat; format: toxicity, organism-based, Sprague-Dawley; design: regimen Daily Repeat, gender Male, age 6-8 weeks; conditions: in vivo, po, 0 mg/kg, 120 h, tissue Plasma, route oral GAVAGE, dose level Control, time 5 day, […]
assay-metric: TOTAL BILIRUBIN (mg/dL)
Numbers only, in mg/dL.

>  <molecule>
CC#C[C@]1(O)CC[C@H]2[C@@H]3CCC4=CC(=O)CCC4=C3[C@@H](c3ccc(N(C)C)cc3)C[C@@]21C [MIFEPRISTONE]

>  <unit-symbol>
mg/dL

>  <TOTAL BILIRUBIN>
0.1

$$$$
>  <molecule>
O=C(Nc1ccc(Cl)c(Cl)c1)c1cc(Cl)cc(Cl)c1O [3,3',4',5-TETRACHLOROSALICYLANILIDE]

>  <unit-symbol>
mg/dL

>  <TOTAL BILIRUBIN>
0.12

$$$$
>  <molecule>
CC(C)(c1ccc(O)cc1)c1ccc(O)cc1 [BISPHENOL A]

>  <unit-symbol>
mg/dL

>  <TOTAL BILIRUBIN>
0.25

$$$$
>  <molecule>
COc1ccccc1OCCNCC(O)COc1cccc2[nH]c3ccccc3c12 (centres undefined) [CARVEDILOL]

>  <unit-symbol>
mg/dL

>  <TOTAL BILIRUBIN>
0.17

$$$$

Parameters: items (list). Returns: TOTAL BILIRUBIN for each item.
1. CCOC(=O)C1=C(C)NC(C)=C(C(=O)OCC)C1c1ccccc1/C=C/C(=O)OC(C)(C)C [LACIDIPINE]
2. O=C(O)COC(=O)Cc1ccccc1Nc1c(Cl)cccc1Cl [ACECLOFENAC]
3. c1ccc2c(c1)Nc1ccccc1S2 [PHENOTHIAZINE]
4. CS(=O)(=O)c1ccc(C2=C(c3ccccc3)C(=O)OC2)cc1 [ROFECOXIB]
5. CO[C@H]1O[C@@H]2O[C@@]3(C)CC[C@H]4[C@H](C)CC[C@@H]([C@H]1C)[C@@]24OO3

Result string:
1: 0.17; 2: 0.17; 3: 0.2; 4: 0.2; 5: 0.13
